# target_or_test_system: Torsin-1A-interacting protein 2 (Homo sapiens)
# test_method_notes: LULL1 binders on small-molecule microarray, primary screen, cell lysate, human LULL1 lysate, 635/667 nm fluorescence (AID 1092);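 also: probe is lysate of COS7 cells overexpressing human LULL1; score merges per-feature 667 nm fluorescence with signal-to-noise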
# condition_notes: hLULL1 lysate binding, 635 nm fluorescence, higher = more signal
We use 2 as the dividing line for composite z-score: on or above the line is 1, below is 0.

Quick check: does COc1ccc([Si](C)(C)[C@H]2[C@H](CC(=O)N3CCC[C@H]3CO)O[C@@]3(C(=O)N(C)c4ccccc43)[C@@H]2C)cc1 have composite z-score greater than or equal to 2?
0

Quick check: does C=CCNC(=O)[C@@H]1[C@H]2C(=O)O[C@H](c3ccccc3)[C@H](c3ccccc3)N2[C@H](c2ccc(O)cc2)[C@@]12C(=O)N(C(=O)OCCOC)c1ccc(C#CCC(C(=O)OC)C(=O)OC)cc12 have composite z-score greater than or equal to 2?
1

Quick check: does CC(C)C[C@H]1NC(=O)CNC(=O)[C@@]23C(=O)N[C@@H](Cc4ccccc4)C2[C@H](C)[C@@]2(C)O[C@H]2C3/C=C/C/C=C\CNC1=O (stereo partly drawn) have composite z-score greater than or equal to 2?
0

Quick check: does COCCOC(=O)N1C(=O)[C@@]2(c3cc(C#CCC(C(=O)OC)C(=O)OC)ccc31)[C@H](C(N)=O)[C@H]1C(=O)O[C@H](c3ccccc3)[C@H](c3ccccc3)N1[C@@H]2c1ccccc1OCCO have composite z-score greater than or equal to 2?
0

Quick check: does CCCCN1CC=CC23O[C@@H]4C=CCCOC(=O)C4[C@H]2C(=O)N(CCO)[C@@H]3C1=O (stereo partly drawn) have composite z-score greater than or equal to 2?
0

Quick check: does O=C(NCC(F)(F)F)[C@@H]1c2ccccc2C(=O)N(Cc2cc(C(F)(F)F)cc(C(F)(F)F)c2)[C@H]1c1ccc(CO)cc1 have composite z-score greater than or equal to 2?
0

Quick check: does CCOC(=O)C[C@H]1[C@H](OC(=O)c2cc3ccccc3oc2=O)[C@@H](NC(=O)c2ccc(-c3ccccc3)cc2)c2cc(OCCCO)ccc2N1C(=O)Cc1ccc(OC)cc1 have composite z-score greater than or equal to 2?
0

Quick check: does CC(C)c1ccc(NN2C(C(O)C(C)c3ccccc3)C=CC3C(=O)N(c4ccccc4)C(=O)C32)cc1 (stereo not drawn) have composite z-score greater than or equal to 2?
1

Quick check: does CN(C)CCCCCCNC(=O)[C@@H]1C[C@@H]2C(=O)N[C@@H](CCCC[N+](C)(C)C)C(=O)N2[C@@H]1c1cccc(OCCO)c1 have composite z-score greater than or equal to 2?
1

Quick check: does CC(C)C[C@@H]1NC(=O)[C@H]2C[C@@H](C(=O)O)[C@@H](c3cccc(OCCO)c3)N2C1=O have composite z-score greater than or equal to 2?
1

Quick check: does C=CCOC(=O)[C@@H]1[C@H]2C(=O)O[C@H](c3ccccc3)[C@H](c3ccccc3)N2[C@H](c2ccc(OCCOC(=O)[C@H]3C[C@H]4C(=O)N[C@@H](CCCCN(C)C)C(=O)N4[C@H]3c3cccc(OCCO)c3)cc2)[C@@]12C(=O)Nc1ccccc12 have composite z-score greater than or equal to 2?
0

Quick check: does C=C(C(=O)CC[C@@H](OC(=O)c1ccccc1-c1ccccc1C(=O)O)c1cccc(OCCO)c1)C(C)C have composite z-score greater than or equal to 2?
0

Quick check: does CC1C2C(CCCO)=CC(C3C(=O)N(C)C(=O)C23)N1Cc1cccc(OC(F)(F)F)c1 (stereo not drawn) have composite z-score greater than or equal to 2?
1

Quick check: does COC(=O)[C@@]1(Cc2ccc(F)cc2)[C@H]2c3cc(C(=O)N(C)C)n(CCF)c3C[C@H]2CN1C(=O)c1ccccc1 have composite z-score greater than or equal to 2?
1

Quick check: does CCCCCCc1nc(Cc2cc(OC)c(OC)c(OC)c2)c(C)c2c1[Si](C(C)C)(C(C)C)OC2 have composite z-score greater than or equal to 2?
0

Quick check: does O=C1C2C=CC(C(O)C(c3ccccc3)c3ccccc3)N(Nc3ccccc3F)C2C(=O)N1c1ccccc1 (stereo not drawn) have composite z-score greater than or equal to 2?
1

Quick check: does CCOC(=O)C=C1C[C@@H](c2cccc([N+](=O)[O-])c2)O[C@@H](c2cccc([N+](=O)[O-])c2)O1 have composite z-score greater than or equal to 2?
1

Quick check: does O=C(NCCN1CCOCC1)[C@@H]1c2ccccc2C(=O)N(CC23CC4CC(CC(C4)C2)C3)[C@H]1c1ccc(CO)cc1 have composite z-score greater than or equal to 2?
1

Quick check: does COc1ccc([Si](C)(C)[C@H]2[C@H](CCO)O[C@@]3(C(=O)N(Cc4ccccc4)c4ccc(NC(=O)[C@H](C)O)cc43)[C@@H]2C)cc1 have composite z-score greater than or equal to 2?
1

Quick check: does C=CCC(OC(C)=O)[C@@H]1[C@@H](N(Cc2ccc(-c3ccccc3)cc2)C(=O)Cc2ccc(OC)cc2)c2cc(OCCCO)ccc2N1C(=O)Cc1ccc(OC)cc1 (stereo partly drawn) have composite z-score greater than or equal to 2?
0

Quick check: does O=C1OC[C@@H](c2ccccc2)n2cc(/C=C/c3ccccc3)cc21 have composite z-score greater than or equal to 2?
0

Quick check: does COc1ccc([Si](C)(C)[C@@H]2[C@@H](CC(=O)N3Cc4ccccc4C[C@H]3CO)O[C@]3(C(=O)N(Cc4ccc(I)cc4)c4ccccc43)[C@H]2C)cc1 have composite z-score greater than or equal to 2?
0

Quick check: does CC(C)c1ccc(NN2C(C(O)C3CCCCC3)C=CC3C(=O)N(c4ccccc4)C(=O)C32)cc1 (stereo not drawn) have composite z-score greater than or equal to 2?
1

Quick check: does C=C(C)C1CN([C@H](CO)c2ccccc2)C(=O)/C1=C\c1ccccc1 (stereo partly drawn) have composite z-score greater than or equal to 2?
0

Quick check: does COC(=O)[C@@]1(Cc2ccc(F)cc2)[C@H]2c3cc(C(=O)N4CCCC4)n(CCSCCO)c3C[C@H]2CN1C(=O)c1ccccc1 have composite z-score greater than or equal to 2?
1

Quick check: does C=C[C@H](C)[C@@H](OC(=O)Nc1ccc(SC)cc1)c1ccc(OCCO)cc1 have composite z-score greater than or equal to 2?
0
